Tested on: Human Umbilical Vein Endothelial (HUVEC) cell line
Protocol Summary: cells
Condition Parameters: 24 h, read-out: MTT IC 50
Measure: IC50 (µg/mL)
Write the number in µg/mL without appending the unit.

Query the reported IC50 for Human Umbilical Vein Endothelial (HUVEC) cell line; item: NCCCn1ccnc1 [Compound 1i]
441

API: value(readout=IC50, system=Human Umbilical Vein Endothelial (HUVEC) cell line) for record COc1cccc2c1C(=O)c1c(O)c3c(c(O)c1C2=O)C[C@@](O)(C(=O)CO)C[C@@H]3O[C@H]1C[C@H](N)[C@H](O)[C@H](C)O1 [doxorubicin, reference compound]
3.1

Recorded IC50 for Nc1ccc(Nc2ccccc2)c2c1C(=O)c1ccccc1C2=O [Compound 1g, 1-amino-4-anilino-9,10-anthraquinone] with Human Umbilical Vein Endothelial (HUVEC) cell line, please?
344

Provide the documented IC50 with Human Umbilical Vein Endothelial (HUVEC) cell line as the system for Nc1ccc2c(c1)Cc1ccccc1-2 [Compound 1e, 2-fluorenamine]
726

====

Tested on: Bacillus Calmette–Guérin (BCG) (1173P2)
Protocol Summary: organism not typed
Format: cell-based, Mycobacterium bovis
Condition Parameters: 72 h, read-out: MIC, Mycobacterium bovis BCG, corresponds to 72 h values
MIC strictly less than 10 µg/mL = y. Otherwise n.

Worked examples follow.
Compound String	Label Value
O=C(O)c1cc2ccccc2oc1=O	n
c1ccc2[nH]ccc2c1	n
Nc1ccc2c(c1)Cc1ccccc1-2	n

Check if MIC falls below 10 µg/mL for c1ccc2c(c1)CCN2 .
y

Hi there! Is MIC for Nc1ccc(Nc2ccccc2)c2c1C(=O)c1ccccc1C2=O below 10 µg/mL, do you know?
y

In plain terms, does Nc1cccc2c1C(=O)c1ccccc1C2=O come in under 10 µg/mL for MIC?
y

====

As shown below, each of these compounds has a reported log10 IC50 value.
System: Human Umbilical Vein Endothelial (HUVEC) cell line
Protocol Summary: cells
Condition Parameters: 24 h, read-out: MTT IC 50
Heads up: the numbers are on a log10 scale; they represent IC50 in µg/mL.

Compound	log10 IC50
c1ccc2c(c1)CCN2 [Compound 1d, indoline]	2.90
Cc1cc(C(=O)O)no1 [Compound 2a, 5-methylisoxazole-3-carboxylic acid]	3.04
Nc1ccccc1 [Compound 1a]	3.02

For Human Umbilical Vein Endothelial (HUVEC) cell line, provide log10 IC50 of c1ccc2[nH]ccc2c1 [Compound 1c, indole] please.
2.76

GET /values?readout=log10 IC50&system=Human Umbilical Vein Endothelial (HUVEC) cell line&item= Nc1cccc2c1C(=O)c1ccccc1C2=O [Compound 1f, 1-aminoanthraquinone]
1.15

Fill in the recorded log10 IC50 for this compound, with Human Umbilical Vein Endothelial (HUVEC) cell line as test system: N#Cc1ccccc1N [Compound 1b]
2.96

Which measured log10 IC50 belongs to O=C1c2ccccc2C(=O)N1CCO [Compound 1h, N-(2-Hydroxyethyl)-phthalimide] , tested on Human Umbilical Vein Endothelial (HUVEC) cell line?
2.93

Value wanted: log10 IC50 (Human Umbilical Vein Endothelial (HUVEC) cell line) of entry O=C(O)/C=C/c1cnc[nH]1 [Compound 1j]
3.08

# query: log10 IC50 | item O=C(O)c1cc2ccccc2oc1=O [Compound 2b, coumarin-3-carboxylic acid] | system: Human Umbilical Vein Endothelial (HUVEC) cell line
2.97
